Target: FRMPD2_3, Q68DX3
Sequence (Q68DX3 1073-1166): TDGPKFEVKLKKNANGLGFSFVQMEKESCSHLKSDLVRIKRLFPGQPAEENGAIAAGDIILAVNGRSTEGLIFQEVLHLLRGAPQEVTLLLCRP
Experiment: holdup assay
Parameters: key: below the threshold = too weak to quantify, mostly under pKd 3.1 to 4
Settings: plain residues with an end cap or a label only (N-terminal biotin on a linker: ado-ado)
result type: pKd

Ask | State the recorded pKd for this entry: DFLSTFHIRI [CIB2, O75838]
Reply | below the threshold

Ask | State the recorded pKd for this entry: EDLEDEWEVI [TECPR2, O15040]
Reply | below the threshold

Ask | State the recorded pKd for this entry: TRKRSGEAAV [PFKM, P08237]
Reply | 3.97

Ask | State the recorded pKd for this entry: APIAGFSSFV [SDK2, Q58EX2]
Reply | below the threshold
